assay: Metabolic stability in rat liver microsomes assessed as compound remaining at 10 uM after 60 mins by HPLC analysis; assay type: ADME; details: read-out: Stability
Outcome Measure: remaining at 1 h, 10 µM (%)

>>> obs_value("COCc1nc(/C=C/c2cc3ccccc3nc2OC)no1")
99

---

test: Cytotoxicity against human HepG2 cells after 48 hrs by SRB assay; assay type: cell-based
Where a name gives a salt, the structure may show the parent alone.
The compounds listed here are annotated with their CC50 at 48 h.
Outcome Measure: CC50 at 48 h

>>> obs_value("COc1nc2ccccc2cc1/C=C/c1noc(-c2ccccc2Br)n1")
"> 195 µM"
>>> obs_value("COc1nc2ccccc2cc1/C=C/c1noc(-c2cccc(C)c2)n1")
"> 230 µM"
>>> obs_value("COc1nc2ccccc2cc1/C=C/c1noc(-c2cccnc2)n1")
"> 240 µM"
>>> obs_value("COc1nc2ccccc2cc1/C=C/c1noc(-c2ccccc2C)n1")
"> 230 µM"
>>> obs_value("COc1nc2ccccc2cc1/C=C/c1noc(-c2ccco2)n1")
"> 250 µM"
>>> obs_value("COc1nc2ccccc2cc1/C=C/c1noc(-c2cccc(Cl)c2)n1")
"> 220 µM"
>>> obs_value("COc1nc2ccccc2cc1/C=C/c1noc(-c2ccc(F)cc2)n1")
"> 230 µM"
>>> obs_value("COc1ccccc1-c1nc(/C=C/c2cc3ccccc3nc2OC)no1")
"> 220 µM"
>>> obs_value("COc1nc2ccccc2cc1/C=C/c1noc(Cc2ccccc2)n1")
"> 230 µM"
>>> obs_value("COc1nc2ccccc2cc1/C=C/c1noc(-c2ccc(Br)cc2)n1")
"> 195 µM"
>>> obs_value("COc1nc2ccccc2cc1/C=C/c1noc(/C=C/c2ccccc2)n1")
"> 225 µM"
>>> obs_value("COCc1nc(/C=C/c2cc3ccccc3nc2OC)no1")
"> 270 µM"
>>> obs_value("COc1cccc(-c2nc(/C=C/c3cc4ccccc4nc3OC)no2)c1")
"> 220 µM"
>>> obs_value("COc1ccc(Cc2nc(/C=C/c3cc4ccccc4nc3OC)no2)cc1")
"> 215 µM"
>>> obs_value("COc1nc2ccccc2cc1/C=C/c1noc(COc2ccccc2)n1")
"> 220 µM"
>>> obs_value("COc1nc2ccccc2cc1/C=C/c1noc(C)n1")
"> 300 µM"
>>> obs_value("COc1ccc(-c2nc(/C=C/c3cc4ccccc4nc3OC)no2)cc1")
"> 220 µM"
>>> obs_value("COc1nc2ccccc2cc1/C=C/c1noc(-c2ccccc2)n1")
"> 240 µM"
>>> obs_value("COc1cccc2c1C(=O)c1c(O)c3c(c(O)c1C2=O)C[C@@](O)(C(=O)CO)C[C@@H]3O[C@H]1C[C@H](N)[C@H](O)[C@H](C)O1 [DOXORUBICIN HYDROCHLORIDE]")
"127 µM"
>>> obs_value("COc1nc2ccccc2cc1/C=C/c1noc(-c2ccc(C)cc2)n1")
"> 230 µM"
